Molecular target: Receptor-interacting serine/threonine-protein kinase 1 (Homo sapiens, UniProt Q13546)
Sequence (Q13546 whole entry): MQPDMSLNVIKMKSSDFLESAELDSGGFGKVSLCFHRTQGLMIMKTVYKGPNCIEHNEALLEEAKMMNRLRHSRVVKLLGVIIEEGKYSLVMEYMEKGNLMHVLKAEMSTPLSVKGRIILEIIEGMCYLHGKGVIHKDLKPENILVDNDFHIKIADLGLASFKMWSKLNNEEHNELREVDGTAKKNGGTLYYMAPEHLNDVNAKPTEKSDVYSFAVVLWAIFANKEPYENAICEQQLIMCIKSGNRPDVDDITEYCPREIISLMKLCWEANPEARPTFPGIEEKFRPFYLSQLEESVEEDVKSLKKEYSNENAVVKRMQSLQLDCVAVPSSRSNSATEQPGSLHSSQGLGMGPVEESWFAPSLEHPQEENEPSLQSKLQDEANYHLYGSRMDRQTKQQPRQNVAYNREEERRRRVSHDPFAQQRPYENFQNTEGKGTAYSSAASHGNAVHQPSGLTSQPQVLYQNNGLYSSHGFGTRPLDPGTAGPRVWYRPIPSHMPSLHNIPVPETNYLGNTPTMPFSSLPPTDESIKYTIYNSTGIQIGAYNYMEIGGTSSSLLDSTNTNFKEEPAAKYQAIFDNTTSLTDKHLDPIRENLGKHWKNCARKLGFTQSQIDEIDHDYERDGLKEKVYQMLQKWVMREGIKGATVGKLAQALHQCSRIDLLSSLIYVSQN
Readout Label: Ki (µM)

Field: example entries. Status: answers known.
[
  {
    "Molecule": "COC(C)(C)C#Cc1ccc2c(c1)N(C)C(=O)C(C(=O)Nc1cn(Cc3ccccc3)cn1)CC2 (stereo unspecified)",
    "Ki [µM]": 0.0257
  },
  {
    "Molecule": "CN1C(=O)C(C(=O)Nc2cn(Cc3ccccc3)cn2)CCc2cc(Br)ccc21 (stereo unspecified)",
    "Ki [µM]": 0.363
  },
  {
    "Molecule": "CN1C(=O)C(C(=O)Nc2cn(Cc3ccccc3)cn2)CCc2ccc(C#CC(C)(C)O)cc21 (racemic)",
    "Ki [µM]": 0.0589
  }
]

A = CC#Cc1ccc2c(c1)N(C)C(=O)C(C(=O)Nc1cn(Cc3ccccc3)cn1)CC2 (stereo unspecified)
B = CC(C)C#Cc1ccc2c(c1)N(C)C(=O)C(C(=O)Nc1cn(Cc3ccccc3)cn1)CC2 (stereo unspecified)
Decide: A or B , by lowest recorded Ki. Please indicate the selected item by its label.
A
(A: 0.0355 µM, B: 0.0759 µM)

====

Test: Plasma concentration in non-fasted NMRI mouse at 10 mg/kg, po measured after 2 hrs by HPLC-MS analysis
Assay type: ADME, organism-based
Readout Label: concentration at 2 h (nM)
// units = nM; emit number, no label

Indicate its recorded concentration at 2 h; the compound in question is CN1C(=O)[C@@H](C(=O)Nc2cn(Cc3ccccc3)cn2)CCc2ccc(C#CC(C)(C)O)cc21
329

====

Assay: Plasma concentration in non-fasted NMRI mouse at 10 mg/kg, po measured after 0.5 hrs by HPLC-MS analysis
Assay type: ADME, organism-based
Readout Label: concentration at 0.5 h (nM)
Response body: numeric value in nM, unit text excluded.

Recall and state the measured concentration at 0.5 h for CN1C(=O)[C@@H](C(=O)Nc2cn(Cc3ccccc3)cn2)CCc2ccc(C#CC(C)(C)O)cc21 .
1340

====

Experiment: Intrinsic clearance in human liver microsomes measured per mg protein
Type: ADME, Microsome
Settings: read-out: CLH
Readout Label: microsomal CLint (µL/min/mg)

In the examples that follow, each entry is paired with its recorded microsomal CLint.
[
  {
    "Compound": "CN1C(=O)C(C(=O)Nc2cn(Cc3ccccc3)cn2)CCc2ccc(Br)cc21 (stereo unspecified)",
    "Recorded Measurement": 75.7
  },
  {
    "Compound": "CN1C(=O)C(C(=O)Nc2cn(Cc3ccccc3)cn2)CCc2cc(C#CC(C)(C)O)ccc21 (stereo unspecified)",
    "Recorded Measurement": 6.6
  },
  {
    "Compound": "CN1C(=O)C(C(=O)Nc2cn(Cc3ccccc3)cn2)CCc2cc(Br)ccc21 (stereo unspecified)",
    "Recorded Measurement": 31.1
  },
  {
    "Compound": "CC(C)C#Cc1ccc2c(c1)N(C)C(=O)C(C(=O)Nc1cn(Cc3ccccc3)cn1)CC2 (stereo unspecified)",
    "Recorded Measurement": 99
  },
  {
    "Compound": "CN1C(=O)C(C(=O)Nc2cn(Cc3ccccc3)cn2)CCc2ccc(C#CC3(C)COC3)cc21 (stereo unspecified)",
    "Recorded Measurement": 124
  },
  {
    "Compound": "CN1C(=O)C(C(=O)Nc2cn(Cc3ccccc3)cn2)CCc2ccc(C#CC(C)(C)O)cc21 (racemic)",
    "Recorded Measurement": 26.5
  },
  {
    "Compound": "CN1C(=O)C(C(=O)Nc2cn(Cc3ccccc3)cn2)CCc2cc(C#CC3(O)COC3)ccc21 (stereo unspecified)",
    "Recorded Measurement": 18.2
  },
  {
    "Compound": "CN1C(=O)[C@H](C(=O)Nc2cn(Cc3ccccc3)cn2)CCc2ccc(C#CC(C)(C)O)cc21",
    "Recorded Measurement": 32.7
  }
]

I = CC(=O)NC(C)(C)C#Cc1ccc2c(c1)N(C)C(=O)C(C(=O)Nc1cn(Cc3ccccc3)cn1)CC2 (stereo unspecified)
II = CC#Cc1ccc2c(c1)N(C)C(=O)C(C(=O)Nc1cn(Cc3ccccc3)cn1)CC2 (stereo unspecified)
Which value of microsomal CLint is greater, the one for I or the one for II ? Please identify the chosen entry by its label.
II
(II: 105 µL/min/mg, I: 7.7 µL/min/mg)

a = CN1C(=O)[C@@H](C(=O)Nc2cn(Cc3ccccc3)cn2)CCc2ccc(C#CC(C)(C)O)cc21
b = CN1C(=O)C(C(=O)Nc2cn(Cc3ccccc3)cn2)CCc2ccc(C#CC3CC3)cc21 (stereo unspecified)
c = CN1C(=O)C(C(=O)Nc2cn(Cc3ccccc3)cn2)CCc2ccc(C#CC(C)(C)N)cc21 (stereo unspecified)
d = CN1C(=O)C(C(=O)Nc2cn(Cc3ccccc3)cn2)CCc2ccc(C#CC3(O)COC3)cc21 (stereo unspecified)
In this exercise, place the 4 compounds in ascending sequence of their recorded microsomal CLint. Answer by writing out the labels in the requested order.
a, c, d, b
(a: 7.6 µL/min/mg, c: 21.1 µL/min/mg, d: 44.4 µL/min/mg, b: 66.5 µL/min/mg)

I = COC(C)(C)C#Cc1ccc2c(c1)N(C)C(=O)C(C(=O)Nc1cn(Cc3ccccc3)cn1)CC2 (stereo unspecified)
II = CN1C(=O)C(C(=O)Nc2cn(Cc3ccccc3)cn2)CCc2ccc(C#CC3CCOCC3)cc21 (stereo unspecified)
Problem: Given the entries I and II , determine which has the lower reported microsomal CLint. Answer = label.
II

====

Test: Intrinsic clearance in mouse liver microsomes measured per mg protein
Format: ADME, Microsome
Conditions: read-out: CLH
Readout Label: microsomal CLint (µL/min/mg)

Study these solved cases before continuing.
[
  {
    "Molecule": "CN1C(=O)C(C(=O)Nc2cn(Cc3ccccc3)cn2)CCc2cc(Br)ccc21 (configuration not stated)",
    "Recorded Measurement": 176
  },
  {
    "Molecule": "COC(C)(C)C#Cc1ccc2c(c1)N(C)C(=O)C(C(=O)Nc1cn(Cc3ccccc3)cn1)CC2 (configuration not stated)",
    "Recorded Measurement": 210
  }
]

P = CN1C(=O)[C@@H](C(=O)Nc2cn(Cc3ccccc3)cn2)CCc2ccc(C#CC(C)(C)O)cc21
Q = CN1C(=O)C(C(=O)Nc2cn(Cc3ccccc3)cn2)CCc2ccc(C#CC(C)(C)N)cc21 (configuration not stated)
Dear colleague, could you let me know whether P or Q has the lower recorded microsomal CLint? Thanks. # respond with the chosen item's label
P

a = CC#Cc1ccc2c(c1)N(C)C(=O)C(C(=O)Nc1cn(Cc3ccccc3)cn1)CC2 (configuration not stated)
b = CN1C(=O)[C@H](C(=O)Nc2cn(Cc3ccccc3)cn2)CCc2ccc(C#CC(C)(C)O)cc21
Which entry shows the lesser value of microsomal CLint here, a or b ? Mark your selection by writing its label.
b

====

Assay: Intrinsic clearance in mouse liver microsomes measured per mg protein
Assay type: ADME, Microsome
Conditions: read-out: CLH
Readout Label: microsomal CLint (µL/min/mg)

[
  {
    "Compound": "CN1C(=O)C(C(=O)Nc2cn(Cc3ccccc3)cn2)CCc2cc(C#CC(C)(C)O)ccc21 (centres undefined)",
    "Recorded Measurement": 29.4
  }
]

P = CN1C(=O)C(C(=O)Nc2cn(Cc3ccccc3)cn2)CCc2cc(C#CC3(O)COC3)ccc21 (centres undefined)
Q = CC(=O)NC(C)(C)C#Cc1ccc2c(c1)N(C)C(=O)C(C(=O)Nc1cn(Cc3ccccc3)cn1)CC2 (centres undefined)
R = CN1C(=O)C(C(=O)Nc2cn(Cc3ccccc3)cn2)CCc2ccc(C#CC3(O)COC3)cc21 (centres undefined)
S = CN1C(=O)C(C(=O)Nc2cn(Cc3ccccc3)cn2)CCc2ccc(Br)cc21 (centres undefined)
Place the items in sequence of falling microsomal CLint. Output spec: a listing of the labels in the requested order.
S, R, P, Q
(S: 211 µL/min/mg, R: 128 µL/min/mg, P: 42.2 µL/min/mg, Q: 29 µL/min/mg)

I = CN1C(=O)C(C(=O)Nc2cn(Cc3ccccc3)cn2)CCc2ccc(C#CC3CCOCC3)cc21 (centres undefined)
II = CN1C(=O)C(C(=O)Nc2cn(Cc3ccccc3)cn2)CCc2ccc(C#CC(C)(C)O)cc21 (racemic)
III = CC(C)C#Cc1ccc2c(c1)N(C)C(=O)C(C(=O)Nc1cn(Cc3ccccc3)cn1)CC2 (centres undefined)
Sort (3 compounds) by microsomal CLint: min first. As an answer, provide the labels arranged in the order called for.
II, I, III
(II: 158 µL/min/mg, I: 234 µL/min/mg, III: 693 µL/min/mg)

// provenance: ChEMBL document CHEMBL6074643
